molecular target: CypF (Homo sapiens (Human), UniProt P30405); assay: Inhibitor binding to cyclophilin proteins by SPR, CypF; settings: 1:1 binding model
Sequence (P30405 30-207): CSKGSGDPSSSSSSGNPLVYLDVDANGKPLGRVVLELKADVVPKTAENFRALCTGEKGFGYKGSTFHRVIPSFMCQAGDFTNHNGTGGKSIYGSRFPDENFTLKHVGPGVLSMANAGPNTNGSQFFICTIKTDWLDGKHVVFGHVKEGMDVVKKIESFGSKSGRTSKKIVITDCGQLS
Starred links: 1 amine or outer side, 2 acyl side, 3 side chain; linkers in the order of their positions; H or OH if unused. Non-standard residues stand in square brackets, D forms with d. Residues, ends and D or L forms follow the SMILES beside them. X35 = C[C@H](CN1CCC2(CC1)OCCO2)[C@@H](C(=O)[*:2])N(C)[*:1]; X40 = C[C@H](COCC(=O)N1CCNCC1)[C@@H](C(=O)[*:2])N(C)[*:1]; X51 = C[C@H](CN1CCC2(COC2)C1)[C@@H](C(=O)[*:2])N(C)[*:1]; X14 = C[C@H](CN1CCN(C)CC1)[C@@H](C(=O)[*:2])N(C)[*:1]; X20 = C[C@H](CCCN1CCOCC1)[C@@H](C(=O)[*:2])N(C)[*:1]; MeBmt = C/C=C/C[C@@H](C)[C@@H](O)[C@H](NC)C(=O)O; NMeL = CN[C@@H](CC(C)C)C(=O)O; NMeV = CN[C@H](C(=O)O)C(C)C; dNMeA = CN[C@H](C)C(=O)O; Abu = CC[C@H](N)C(=O)O
MEASURE NAME: CypF Kd (nM)
Kindly answer with a numeric value in nM, unit omitted.

Below: 4 compounds and their reported CypF Kd.
COMPOUND	MEASURE NAME	RECORDED MEASUREMENT
C/C=C/C[C@@H](C)[C@@H](O)[C@H]1C(=O)N[C@@H](CC)C(=O)N(C)[C@H](C)C(=O)N(C)[C@@H]([C@H](C)CN2CCN(C)CC2)C(=O)N[C@@H](C(C)C)C(=O)N(C)[C@@H](CC(C)C)C(=O)N[C@@H](C)C(=O)N[C@H](C)C(=O)N(C)[C@@H](CC(C)C)C(=O)N(C)[C@@H](CC(C)C)C(=O)N(C)[C@@H](C(C)C)C(=O)N1C [Compound 2.5.29] (cyclo(A[dA][NMeL][NMeL][NMeV][MeBmt][Abu][dNMeA][X14]V[NMeL]))	CypF Kd	0.6
C/C=C/C[C@@H](C)[C@@H](O)[C@H]1C(=O)N[C@@H](CC)C(=O)N(C)[C@H](C)C(=O)N(C)[C@@H]([C@H](C)CN2CCC3(CC2)OCCO3)C(=O)N[C@@H](C(C)C)C(=O)N(C)[C@@H](CC(C)C)C(=O)N[C@@H](C)C(=O)N[C@H](C)C(=O)N(C)[C@@H](CC(C)C)C(=O)N(C)[C@@H](CC(C)C)C(=O)N(C)[C@@H](C(C)C)C(=O)N1C [Compound 2.5.28] (cyclo(A[dA][NMeL][NMeL][NMeV][MeBmt][Abu][dNMeA][X35]V[NMeL]))	CypF Kd	0.8
C/C=C/C[C@@H](C)[C@@H](O)[C@H]1C(=O)N[C@@H](CC)C(=O)N(C)[C@H](C)C(=O)N(C)[C@@H]([C@H](C)CN2CCC3(COC3)C2)C(=O)N[C@@H](C(C)C)C(=O)N(C)[C@@H](CC(C)C)C(=O)N[C@@H](C)C(=O)N[C@H](C)C(=O)N(C)[C@@H](CC(C)C)C(=O)N(C)[C@@H](CC(C)C)C(=O)N(C)[C@@H](C(C)C)C(=O)N1C [Compound 2.5.33] (cyclo(A[dA][NMeL][NMeL][NMeV][MeBmt][Abu][dNMeA][X51]V[NMeL]))	CypF Kd	0.8
C/C=C/C[C@@H](C)[C@@H](O)[C@H]1C(=O)N[C@@H](CC)C(=O)N(C)[C@H](C)C(=O)N(C)[C@@H]([C@H](C)CCCN2CCOCC2)C(=O)N[C@@H](C(C)C)C(=O)N(C)[C@@H](CC(C)C)C(=O)N[C@@H](C)C(=O)N[C@H](C)C(=O)N(C)[C@@H](CC(C)C)C(=O)N(C)[C@@H](CC(C)C)C(=O)N(C)[C@@H](C(C)C)C(=O)N1C [Compound 2.19.1] (cyclo([MeBmt][Abu][dNMeA][X20]V[NMeL]A[dA][NMeL][NMeL][NMeV]))	CypF Kd	0.5

# value lookup — system CypF (Homo sapiens (Human), UniProt P30405), readout CypF Kd, item C/C=C/C[C@@H](C)[C@@H](O)[C@H]1C(=O)N[C@@H](CC)C(=O)N(C)[C@H](C)C(=O)N(C)[C@@H]([C@H](C)COCC(=O)N2CCNCC2)C(=O)N[C@@H](C(C)C)C(=O)N(C)[C@@H](CC(C)C)C(=O)N[C@@H](C)C(=O)N[C@H](C)C(=O)N(C)[C@@H](CC(C)C)C(=O)N(C)[C@@H](CC(C)C)C(=O)N(C)[C@@H](C(C)C)C(=O)N1C [Compound 2.6.1] (cyclo(A[dA][NMeL][NMeL][NMeV][MeBmt][Abu][dNMeA][X40]V[NMeL]))
0.4
